B1: Pistol ribozyme (parent)
chain: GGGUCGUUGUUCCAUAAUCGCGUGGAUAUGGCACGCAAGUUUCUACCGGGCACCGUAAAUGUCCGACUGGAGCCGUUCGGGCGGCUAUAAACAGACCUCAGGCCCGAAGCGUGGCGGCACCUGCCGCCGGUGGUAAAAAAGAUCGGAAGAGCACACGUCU

# Variants of: B1
# protocol_details: aptazyme ON/OFF ratio, guanine; higher = stronger switching; co-transcriptional cleavage with and without guanine
Reported aptazyme ON/OFF ratio values for the following variants.
# print the numeric value only

Returns the measured aptazyme ON/OFF ratio for the input variant. Input: G9C U10C U11C C12U
1.03

Returns the measured aptazyme ON/OFF ratio for the input variant. Input: U7G U8A G9C U10C U11G C13G
1.03
